- Test system: HEK293 cells
- test_protocol: HEK293 VLCFA-LPC IC50 determination (13C-labeled C26:0 LPC by UHPLC/MS)
- Format: cell-based, human
- particulars: Homo sapiens, HEK293, 48 h, average of one or more replicates; 13C-labeled C26:0 LPC, 48 hours; read-out: Average HEK293 IC50
Measured IC50 by item
Kindly answer with a numeric value in µM, unit omitted.

INSERT INTO results (compound, reported_measurement) VALUES
  ('O=C(Nc1ccn(-c2cncc(F)c2)n1)[C@]1(c2ncccc2F)CC12CC2 (single isomer, unassigned)', 0.74),
  ('O=C(Nc1ccn(-c2cnns2)n1)C1(c2ccccc2F)CC1', 0.037);

# input compound: "COc1nccc(-n2ccc(NC(=O)C3(c4ccccc4F)CC3)n2)n1" ; wanted: its IC50
0.26

Value lookup for IC50; key = "Cc1csc(-n2ccc(NC(=O)C3(c4ccccc4F)CC3)n2)n1"
0.47

# get_value(readout='IC50', item= "O=C(Nc1ccn(-c2ncns2)n1)C1(c2ccccc2F)CC1" )
0.018

Name the reported IC50 value associated with the compound "Cc1cncnc1-n1ccc(NC(=O)C2(c3ccccc3F)CC2)n1"
0.069

Fill blank: measured IC50 of the compound O=C(Nc1ccn(-c2ccnc(F)c2)n1)C1(c2ccccc2)CC1(Cl)Cl (single isomer, unassigned) [Compound 371] is ____.
0.72

What measured IC50 goes with "COc1ncc(-n2ccc(NC(=O)C3(c4ccccc4F)CC3)n2)cc1Cl" ?
0.12

Name the reported IC50 value associated with the compound "O=C(Nc1ccn(-c2ccsn2)n1)C1(c2ccccc2F)CC1"
0.06

====

- Tested on: HEK293 cells
- test_protocol: HEK293 VLCFA-LPC IC50 determination (13C-labeled C26:0 LPC by UHPLC/MS)
- Format: cell-based, human
- particulars: average of one or more replicates; 13C-labeled C26:0 LPC, 48 hours; read-out: Average HEK293 IC50
# pIC50 per record follows
Scale explanation: pIC50 corresponds to minus log10 of a concentration expressed in moles per litre.

INSERT INTO results (compound, reported_measurement) VALUES
  ('O=C(Nc1ccn(-c2cccc(Cl)c2)n1)C1(c2ccccc2)CC1(F)F (single isomer, unassigned) [Compound 438]', 6.27),
  ('O=C(Nc1ccn(-c2cncc(F)c2)n1)C1(c2ccccc2)CC1(F)F (single isomer, unassigned) [Compound 435]', 7.22);

Now examine the next entry.
Look up pIC50 for this compound: O=C(Nc1ccn(-c2cncc(F)c2)n1)C1(c2ccccc2)CC1(F)F (single isomer, unassigned) [Compound 436]
6.74

====

- Test system: HEK293 cells
- test_protocol: HEK293 VLCFA-LPC IC50 determination (13C-labeled C26:0 LPC by UHPLC/MS)
- Format: cell-based, human
- particulars: Homo sapiens, HEK293, 48 h, average of one or more replicates; 13C-labeled C26:0 LPC, 48 hours; read-out: Average HEK293 IC50
Response field label: string, one of true (IC50 strictly below 500 nM) or false.

INSERT INTO assay_data (compound, label_value) VALUES
  ('Cc1ncc(C#N)c(-n2ccc(NC(=O)C3(c4ccccc4F)CC3)n2)n1', 'false'),
  ('Cc1ncncc1-n1ccc(NC(=O)C2(c3ccccc3F)CC2)n1', 'false');

Given the entry "COc1ccc(-n2ccc(NC(=O)C3(c4ccccc4F)CC3)n2)cc1F" , would its reported IC50 be below 500 nM?
false

These data points were gathered from patent US20180251431A1.
